# Tested on: NLK (human) (UniProt Q9UBE8)
# Sequence (Q9UBE8 whole entry, looked up): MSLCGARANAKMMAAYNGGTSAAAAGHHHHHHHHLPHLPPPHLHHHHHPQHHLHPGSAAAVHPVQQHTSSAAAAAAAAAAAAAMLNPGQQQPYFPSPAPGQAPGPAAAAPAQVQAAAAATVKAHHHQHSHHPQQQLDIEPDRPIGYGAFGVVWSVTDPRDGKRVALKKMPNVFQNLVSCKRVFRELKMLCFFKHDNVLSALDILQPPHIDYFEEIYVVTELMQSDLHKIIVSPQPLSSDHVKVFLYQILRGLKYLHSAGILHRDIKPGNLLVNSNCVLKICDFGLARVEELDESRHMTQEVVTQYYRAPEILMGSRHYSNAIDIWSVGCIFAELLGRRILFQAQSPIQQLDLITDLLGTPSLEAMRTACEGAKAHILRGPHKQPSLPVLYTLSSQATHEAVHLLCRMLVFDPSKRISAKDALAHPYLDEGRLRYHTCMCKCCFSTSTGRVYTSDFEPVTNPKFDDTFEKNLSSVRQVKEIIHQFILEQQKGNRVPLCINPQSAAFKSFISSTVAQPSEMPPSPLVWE
# Assay summary: KINOMEscan competition binding
# Details: compound 1.0 µM
# kinase still bound, per cent of control per record follows
Measure: kinase still bound, per cent of control (%)

- Molecule smiles: "CN(C)C/C=C/C(=O)Nc1cccc(C(=O)Nc2ccc(Nc3nccc(/C(C#N)=C4\\Nc5ccccc5S4)n3)cc2)c1"
  Reported result: 100
- Molecule smiles: "Cc1cc(NC(=O)c2cccc(NC(=O)/C=C/CN(C)C)c2)ccc1Nc1nccc(-c2cccnc2)n1"
  Reported result: 70
- Molecule smiles: "CN(C)C/C=C/C(=O)Nc1cccc(C(=O)Nc2ccc(Nc3nccc(-c4c(-c5ccccc5)nn5ccccc45)n3)cc2)c1"
  Reported result: 12
- Molecule smiles: "CN(C)C/C=C/C(=O)Nc1cccc(C(=O)Nc2ccc(Nc3nccc(-c4cccnc4)n3)cc2)c1"
  Reported result: 81

----------
# kinase still bound, per cent of control per record follows
# Tested on: CDK2 (human)
# Assay summary: KINOMEscan competition binding
# Details: compound 1.0 µM

- Molecule smiles: "CN(C)C/C=C/C(=O)Nc1cccc(C(=O)Nc2ccc(Nc3nccc(/C(C#N)=C4\\Nc5ccccc5S4)n3)cc2)c1"
  kinase still bound, per cent of control [%]: 100
- Molecule smiles: "Cc1cc(NC(=O)c2cccc(NC(=O)/C=C/CN(C)C)c2)ccc1Nc1nccc(-c2cccnc2)n1"
  kinase still bound, per cent of control [%]: 77
- Molecule smiles: "CN(C)C/C=C/C(=O)Nc1cccc(C(=O)Nc2ccc(Nc3nccc(-c4cccnc4)n3)cc2)c1"
  kinase still bound, per cent of control [%]: 100
- Molecule smiles: "CN(C)C/C=C/C(=O)Nc1cccc(C(=O)Nc2ccc(Nc3nccc(-c4c(-c5ccccc5)nn5ccccc45)n3)cc2)c1"
  kinase still bound, per cent of control [%]: 100

----------
# kinase still bound, per cent of control per record follows
# Tested on: UniProtKB Q15569
# Sequence (Q15569 whole entry, looked up): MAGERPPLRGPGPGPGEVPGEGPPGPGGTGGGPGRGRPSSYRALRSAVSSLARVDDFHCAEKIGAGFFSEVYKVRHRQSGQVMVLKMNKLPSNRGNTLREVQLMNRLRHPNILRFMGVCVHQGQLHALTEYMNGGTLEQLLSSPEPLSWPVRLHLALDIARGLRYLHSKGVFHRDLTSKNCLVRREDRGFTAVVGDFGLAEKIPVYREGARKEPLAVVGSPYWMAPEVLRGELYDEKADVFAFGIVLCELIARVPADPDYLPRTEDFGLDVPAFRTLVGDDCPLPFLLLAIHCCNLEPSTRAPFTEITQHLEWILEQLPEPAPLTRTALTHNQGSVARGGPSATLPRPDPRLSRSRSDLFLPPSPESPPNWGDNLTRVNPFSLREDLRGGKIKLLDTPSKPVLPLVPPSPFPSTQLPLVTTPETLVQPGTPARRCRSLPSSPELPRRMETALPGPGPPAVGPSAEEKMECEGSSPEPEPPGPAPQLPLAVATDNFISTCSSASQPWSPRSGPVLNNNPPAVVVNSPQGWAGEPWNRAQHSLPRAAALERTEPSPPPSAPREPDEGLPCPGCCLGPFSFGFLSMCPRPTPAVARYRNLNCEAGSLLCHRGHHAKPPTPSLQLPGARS
# Assay summary: KINOMEscan competition binding
# Details: compound 1.0 µM

- Molecule smiles: "CN(C)C/C=C/C(=O)Nc1cccc(C(=O)Nc2ccc(Nc3nccc(-c4c(-c5ccccc5)nn5ccccc45)n3)cc2)c1"
  Tested on: "UniProtKB Q15569"
  kinase still bound, per cent of control (%): 99
- Molecule smiles: "CN(C)C/C=C/C(=O)Nc1cccc(C(=O)Nc2ccc(Nc3nccc(-c4cccnc4)n3)cc2)c1"
  Tested on: "UniProtKB Q15569"
  kinase still bound, per cent of control (%): 88
- Molecule smiles: "Cc1cc(NC(=O)c2cccc(NC(=O)/C=C/CN(C)C)c2)ccc1Nc1nccc(-c2cccnc2)n1"
  Tested on: "UniProtKB Q15569"
  kinase still bound, per cent of control (%): 100
- Molecule smiles: "CN(C)C/C=C/C(=O)Nc1cccc(C(=O)Nc2ccc(Nc3nccc(/C(C#N)=C4\\Nc5ccccc5S4)n3)cc2)c1"
  Tested on: "UniProtKB Q15569"
  kinase still bound, per cent of control (%): 100

----------
# Tested on: AAK1 (human) (UniProt Q2M2I8)
# Assay summary: KINOMEscan competition binding
# Details: compound 1.0 µM
# kinase still bound, per cent of control per record follows
Measure: kinase still bound, per cent of control (%)

- Molecule smiles: "CN(C)C/C=C/C(=O)Nc1cccc(C(=O)Nc2ccc(Nc3nccc(/C(C#N)=C4\\Nc5ccccc5S4)n3)cc2)c1"
  Tested on: "AAK1 (human) (UniProt Q2M2I8)"
  Reported result: 100
- Molecule smiles: "CN(C)C/C=C/C(=O)Nc1cccc(C(=O)Nc2ccc(Nc3nccc(-c4c(-c5ccccc5)nn5ccccc45)n3)cc2)c1"
  Tested on: "AAK1 (human) (UniProt Q2M2I8)"
  Reported result: 100
- Molecule smiles: "CN(C)C/C=C/C(=O)Nc1cccc(C(=O)Nc2ccc(Nc3nccc(-c4cccnc4)n3)cc2)c1"
  Tested on: "AAK1 (human) (UniProt Q2M2I8)"
  Reported result: 18
- Molecule smiles: "Cc1cc(NC(=O)c2cccc(NC(=O)/C=C/CN(C)C)c2)ccc1Nc1nccc(-c2cccnc2)n1"
  Tested on: "AAK1 (human) (UniProt Q2M2I8)"
  Reported result: 69

----------
# Tested on: MARK1 (human) (UniProt Q9P0L2)
# Sequence (Q9P0L2 whole entry, looked up): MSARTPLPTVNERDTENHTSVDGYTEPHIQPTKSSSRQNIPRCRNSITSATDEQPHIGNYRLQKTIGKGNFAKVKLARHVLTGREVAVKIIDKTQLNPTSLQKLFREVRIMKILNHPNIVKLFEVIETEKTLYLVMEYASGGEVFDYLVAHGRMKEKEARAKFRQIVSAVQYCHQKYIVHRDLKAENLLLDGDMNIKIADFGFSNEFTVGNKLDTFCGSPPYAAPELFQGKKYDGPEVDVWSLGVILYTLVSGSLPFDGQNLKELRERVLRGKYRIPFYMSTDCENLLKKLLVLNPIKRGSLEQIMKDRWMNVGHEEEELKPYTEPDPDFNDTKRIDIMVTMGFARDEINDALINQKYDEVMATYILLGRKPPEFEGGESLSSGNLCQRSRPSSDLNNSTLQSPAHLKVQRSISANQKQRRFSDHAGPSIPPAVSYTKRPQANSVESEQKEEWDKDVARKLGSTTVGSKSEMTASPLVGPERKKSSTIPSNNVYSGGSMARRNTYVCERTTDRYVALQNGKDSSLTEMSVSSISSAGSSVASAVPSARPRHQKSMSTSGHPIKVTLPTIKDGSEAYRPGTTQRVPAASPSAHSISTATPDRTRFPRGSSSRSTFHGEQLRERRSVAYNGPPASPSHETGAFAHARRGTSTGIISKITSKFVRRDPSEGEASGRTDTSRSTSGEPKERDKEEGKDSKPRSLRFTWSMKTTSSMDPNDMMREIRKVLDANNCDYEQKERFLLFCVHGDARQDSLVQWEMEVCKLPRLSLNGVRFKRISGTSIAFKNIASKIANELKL
# Assay summary: KINOMEscan competition binding
# Details: compound 1.0 µM

- Molecule smiles: "CN(C)C/C=C/C(=O)Nc1cccc(C(=O)Nc2ccc(Nc3nccc(/C(C#N)=C4\\Nc5ccccc5S4)n3)cc2)c1"
  Unit name: "%"
  kinase still bound, per cent of control: 100
- Molecule smiles: "Cc1cc(NC(=O)c2cccc(NC(=O)/C=C/CN(C)C)c2)ccc1Nc1nccc(-c2cccnc2)n1"
  Unit name: "%"
  kinase still bound, per cent of control: 100
- Molecule smiles: "CN(C)C/C=C/C(=O)Nc1cccc(C(=O)Nc2ccc(Nc3nccc(-c4c(-c5ccccc5)nn5ccccc45)n3)cc2)c1"
  Unit name: "%"
  kinase still bound, per cent of control: 100
- Molecule smiles: "CN(C)C/C=C/C(=O)Nc1cccc(C(=O)Nc2ccc(Nc3nccc(-c4cccnc4)n3)cc2)c1"
  Unit name: "%"
  kinase still bound, per cent of control: 68

----------
# kinase still bound, per cent of control per record follows
# Tested on: UniProt:Q13873
# Sequence (Q13873 whole entry, looked up): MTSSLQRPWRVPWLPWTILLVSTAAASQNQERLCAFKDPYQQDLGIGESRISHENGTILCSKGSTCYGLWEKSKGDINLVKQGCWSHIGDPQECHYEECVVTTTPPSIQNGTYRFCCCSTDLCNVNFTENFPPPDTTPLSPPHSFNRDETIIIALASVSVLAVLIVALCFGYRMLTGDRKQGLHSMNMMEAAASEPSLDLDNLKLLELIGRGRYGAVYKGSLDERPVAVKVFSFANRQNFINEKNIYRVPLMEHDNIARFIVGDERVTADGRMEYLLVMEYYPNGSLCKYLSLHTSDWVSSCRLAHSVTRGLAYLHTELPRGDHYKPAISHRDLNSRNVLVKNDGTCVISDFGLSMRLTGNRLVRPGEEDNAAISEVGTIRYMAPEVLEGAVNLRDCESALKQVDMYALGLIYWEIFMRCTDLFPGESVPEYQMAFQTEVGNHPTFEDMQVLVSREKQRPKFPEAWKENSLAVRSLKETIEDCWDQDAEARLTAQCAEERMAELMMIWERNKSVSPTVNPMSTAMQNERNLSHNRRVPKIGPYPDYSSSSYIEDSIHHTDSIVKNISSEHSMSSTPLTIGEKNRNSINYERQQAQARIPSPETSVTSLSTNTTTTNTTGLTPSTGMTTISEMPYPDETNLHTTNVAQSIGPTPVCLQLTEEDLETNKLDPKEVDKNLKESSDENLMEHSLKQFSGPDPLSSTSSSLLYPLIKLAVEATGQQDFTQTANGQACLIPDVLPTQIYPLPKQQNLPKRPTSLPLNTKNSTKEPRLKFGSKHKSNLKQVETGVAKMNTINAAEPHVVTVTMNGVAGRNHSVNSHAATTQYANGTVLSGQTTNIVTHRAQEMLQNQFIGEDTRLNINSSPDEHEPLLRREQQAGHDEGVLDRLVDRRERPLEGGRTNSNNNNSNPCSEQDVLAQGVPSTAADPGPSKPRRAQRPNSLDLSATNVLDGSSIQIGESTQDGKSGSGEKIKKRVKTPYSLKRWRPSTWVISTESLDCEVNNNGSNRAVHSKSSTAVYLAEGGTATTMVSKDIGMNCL
# Assay summary: KINOMEscan competition binding
# Details: compound 1.0 µM

- Molecule smiles: "CN(C)C/C=C/C(=O)Nc1cccc(C(=O)Nc2ccc(Nc3nccc(-c4c(-c5ccccc5)nn5ccccc45)n3)cc2)c1"
  kinase still bound, per cent of control: "100%"
- Molecule smiles: "CN(C)C/C=C/C(=O)Nc1cccc(C(=O)Nc2ccc(Nc3nccc(/C(C#N)=C4\\Nc5ccccc5S4)n3)cc2)c1"
  kinase still bound, per cent of control: "50%"
- Molecule smiles: "CN(C)C/C=C/C(=O)Nc1cccc(C(=O)Nc2ccc(Nc3nccc(-c4cccnc4)n3)cc2)c1"
  kinase still bound, per cent of control: "64%"
- Molecule smiles: "Cc1cc(NC(=O)c2cccc(NC(=O)/C=C/CN(C)C)c2)ccc1Nc1nccc(-c2cccnc2)n1"
  kinase still bound, per cent of control: "77%"

----------
# kinase still bound, per cent of control per record follows
# Tested on: UniProt:O60285
# Sequence (O60285 whole entry, looked up): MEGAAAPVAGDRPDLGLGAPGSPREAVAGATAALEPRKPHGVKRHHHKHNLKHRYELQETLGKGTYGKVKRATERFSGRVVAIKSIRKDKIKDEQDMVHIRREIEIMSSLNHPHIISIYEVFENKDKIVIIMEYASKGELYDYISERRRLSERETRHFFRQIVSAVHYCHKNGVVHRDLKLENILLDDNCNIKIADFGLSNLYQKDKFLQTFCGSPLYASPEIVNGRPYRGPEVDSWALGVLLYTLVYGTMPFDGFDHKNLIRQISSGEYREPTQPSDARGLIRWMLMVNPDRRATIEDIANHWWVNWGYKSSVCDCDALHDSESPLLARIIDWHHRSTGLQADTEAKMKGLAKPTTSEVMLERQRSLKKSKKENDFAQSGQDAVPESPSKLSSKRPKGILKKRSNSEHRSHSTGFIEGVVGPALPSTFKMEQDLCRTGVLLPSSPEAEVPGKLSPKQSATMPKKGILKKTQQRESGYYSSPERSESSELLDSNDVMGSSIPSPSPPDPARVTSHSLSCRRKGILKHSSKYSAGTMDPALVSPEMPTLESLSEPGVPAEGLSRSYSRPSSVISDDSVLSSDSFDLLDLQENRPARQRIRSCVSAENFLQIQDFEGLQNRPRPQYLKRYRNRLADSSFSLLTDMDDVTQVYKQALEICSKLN
# Assay summary: KINOMEscan competition binding
# Details: compound 1.0 µM

- Molecule smiles: "Cc1cc(NC(=O)c2cccc(NC(=O)/C=C/CN(C)C)c2)ccc1Nc1nccc(-c2cccnc2)n1"
  kinase still bound, per cent of control / %: 100
- Molecule smiles: "CN(C)C/C=C/C(=O)Nc1cccc(C(=O)Nc2ccc(Nc3nccc(/C(C#N)=C4\\Nc5ccccc5S4)n3)cc2)c1"
  kinase still bound, per cent of control / %: 100
- Molecule smiles: "CN(C)C/C=C/C(=O)Nc1cccc(C(=O)Nc2ccc(Nc3nccc(-c4c(-c5ccccc5)nn5ccccc45)n3)cc2)c1"
  kinase still bound, per cent of control / %: 83
- Molecule smiles: "CN(C)C/C=C/C(=O)Nc1cccc(C(=O)Nc2ccc(Nc3nccc(-c4cccnc4)n3)cc2)c1"
  kinase still bound, per cent of control / %: 37

----------
# Tested on: MELK (human)
# Assay summary: KINOMEscan competition binding
# Details: compound 1.0 µM

- Molecule smiles: "CN(C)C/C=C/C(=O)Nc1cccc(C(=O)Nc2ccc(Nc3nccc(-c4c(-c5ccccc5)nn5ccccc45)n3)cc2)c1"
  Unit name: "%"
  kinase still bound, per cent of control: 100
- Molecule smiles: "CN(C)C/C=C/C(=O)Nc1cccc(C(=O)Nc2ccc(Nc3nccc(/C(C#N)=C4\\Nc5ccccc5S4)n3)cc2)c1"
  Unit name: "%"
  kinase still bound, per cent of control: 100
- Molecule smiles: "Cc1cc(NC(=O)c2cccc(NC(=O)/C=C/CN(C)C)c2)ccc1Nc1nccc(-c2cccnc2)n1"
  Unit name: "%"
  kinase still bound, per cent of control: 71
- Molecule smiles: "CN(C)C/C=C/C(=O)Nc1cccc(C(=O)Nc2ccc(Nc3nccc(-c4cccnc4)n3)cc2)c1"
  Unit name: "%"
  kinase still bound, per cent of control: 30

----------
# kinase still bound, per cent of control per record follows
# Tested on: BMP2K (human) (UniProt Q9NSY1)
# Sequence (Q9NSY1 whole entry, looked up): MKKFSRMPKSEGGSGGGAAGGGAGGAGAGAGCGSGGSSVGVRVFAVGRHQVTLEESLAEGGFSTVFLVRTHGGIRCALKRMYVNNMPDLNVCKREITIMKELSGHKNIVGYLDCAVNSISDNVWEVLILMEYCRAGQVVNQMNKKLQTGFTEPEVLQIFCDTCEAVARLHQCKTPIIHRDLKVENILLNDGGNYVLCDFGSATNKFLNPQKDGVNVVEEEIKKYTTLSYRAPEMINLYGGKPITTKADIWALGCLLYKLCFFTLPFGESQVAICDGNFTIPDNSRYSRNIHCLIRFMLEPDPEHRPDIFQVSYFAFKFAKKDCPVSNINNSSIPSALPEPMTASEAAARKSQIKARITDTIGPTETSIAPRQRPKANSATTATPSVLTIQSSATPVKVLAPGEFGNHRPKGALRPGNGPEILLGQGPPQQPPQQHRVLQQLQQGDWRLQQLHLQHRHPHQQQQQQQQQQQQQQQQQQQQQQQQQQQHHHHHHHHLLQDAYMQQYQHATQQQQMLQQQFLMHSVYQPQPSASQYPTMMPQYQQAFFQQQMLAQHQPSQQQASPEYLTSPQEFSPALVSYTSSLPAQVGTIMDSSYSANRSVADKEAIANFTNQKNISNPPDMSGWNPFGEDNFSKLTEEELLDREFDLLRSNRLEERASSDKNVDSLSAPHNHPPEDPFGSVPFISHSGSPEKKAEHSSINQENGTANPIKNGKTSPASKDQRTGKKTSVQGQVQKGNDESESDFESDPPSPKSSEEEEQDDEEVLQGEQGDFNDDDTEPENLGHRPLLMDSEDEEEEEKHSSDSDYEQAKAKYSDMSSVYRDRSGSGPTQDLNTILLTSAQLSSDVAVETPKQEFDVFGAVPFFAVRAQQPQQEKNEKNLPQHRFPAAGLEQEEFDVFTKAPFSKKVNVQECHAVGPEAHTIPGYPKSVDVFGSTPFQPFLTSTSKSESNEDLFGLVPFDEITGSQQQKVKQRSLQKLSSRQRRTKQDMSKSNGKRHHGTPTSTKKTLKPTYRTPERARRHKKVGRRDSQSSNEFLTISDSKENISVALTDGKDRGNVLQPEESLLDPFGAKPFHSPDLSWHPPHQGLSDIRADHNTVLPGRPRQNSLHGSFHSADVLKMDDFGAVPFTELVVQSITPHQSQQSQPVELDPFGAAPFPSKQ
# Assay summary: KINOMEscan competition binding
# Details: compound 1.0 µM
Measure: kinase still bound, per cent of control (%)

- Molecule smiles: "Cc1cc(NC(=O)c2cccc(NC(=O)/C=C/CN(C)C)c2)ccc1Nc1nccc(-c2cccnc2)n1"
  Measure: "kinase still bound, per cent of control"
  Reported result: 94
- Molecule smiles: "CN(C)C/C=C/C(=O)Nc1cccc(C(=O)Nc2ccc(Nc3nccc(-c4c(-c5ccccc5)nn5ccccc45)n3)cc2)c1"
  Measure: "kinase still bound, per cent of control"
  Reported result: 100
- Molecule smiles: "CN(C)C/C=C/C(=O)Nc1cccc(C(=O)Nc2ccc(Nc3nccc(/C(C#N)=C4\\Nc5ccccc5S4)n3)cc2)c1"
  Measure: "kinase still bound, per cent of control"
  Reported result: 51
- Molecule smiles: "CN(C)C/C=C/C(=O)Nc1cccc(C(=O)Nc2ccc(Nc3nccc(-c4cccnc4)n3)cc2)c1"
  Measure: "kinase still bound, per cent of control"
  Reported result: 3.8

FYI, the data here is from the kinase profiling compilation of Christmann-Franck et al. (2016).
